Ref: patent US20250066343A1

Target: UniProt:P06276
Sequence (P06276 29-602): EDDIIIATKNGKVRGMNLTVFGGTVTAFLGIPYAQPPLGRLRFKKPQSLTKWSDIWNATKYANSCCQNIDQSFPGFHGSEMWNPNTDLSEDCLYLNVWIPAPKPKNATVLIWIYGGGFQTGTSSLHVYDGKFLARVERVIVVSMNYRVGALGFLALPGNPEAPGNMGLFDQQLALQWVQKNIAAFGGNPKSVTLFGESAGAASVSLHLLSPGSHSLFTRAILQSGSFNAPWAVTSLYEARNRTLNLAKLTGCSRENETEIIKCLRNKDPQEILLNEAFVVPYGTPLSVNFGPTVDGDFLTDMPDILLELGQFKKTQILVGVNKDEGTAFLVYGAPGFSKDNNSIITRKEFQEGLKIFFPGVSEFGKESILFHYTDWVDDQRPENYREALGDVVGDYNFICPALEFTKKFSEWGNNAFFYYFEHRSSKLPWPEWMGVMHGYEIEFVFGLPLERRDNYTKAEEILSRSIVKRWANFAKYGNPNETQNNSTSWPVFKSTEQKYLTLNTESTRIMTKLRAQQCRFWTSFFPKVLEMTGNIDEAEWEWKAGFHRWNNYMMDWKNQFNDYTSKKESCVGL
Test: Butyrylcholinesterase inhibitory efficacy (butyrylthiocholine/DTNB absorbance assay)
Assay type: biochemical
Settings: compound 0-200 μM; enzyme 50 mU/ml; N.D. = Not Detected
quantity_kind: IC50 (µM)
Value expressed in µM; do not type the unit.

Solved cases below.
CCCCCc1cc2c(c(O)c1C(=O)Nc1ccccc1)C=CC(C)(CCC=C(C)C)O2 (stereo not shown)	94.6
CCCCCc1cc2c(c(O)c1C(=O)NC1CCN(C)CC1)C=CC(C)(CCC=C(C)C)O2 (stereo not shown)	6.2
CCCCCc1cc2c(c(O)c1C(=O)NCCc1ccc(O)cc1)C=CC(C)(CCC=C(C)C)O2 (stereo not shown)	2.6

Data request: Which IC50 is listed for CCCCCc1cc2c(c(O)c1C(=O)NN1CCCCC1)C=CC(C)(CCC=C(C)C)O2 (stereo not shown) ?
Data returned: 1.3
